meta.source: ChEMBL document CHEMBL1147456

Molecular target: Epidermal growth factor receptor (Homo sapiens, UniProt P00533)
Sequence (P00533 whole entry): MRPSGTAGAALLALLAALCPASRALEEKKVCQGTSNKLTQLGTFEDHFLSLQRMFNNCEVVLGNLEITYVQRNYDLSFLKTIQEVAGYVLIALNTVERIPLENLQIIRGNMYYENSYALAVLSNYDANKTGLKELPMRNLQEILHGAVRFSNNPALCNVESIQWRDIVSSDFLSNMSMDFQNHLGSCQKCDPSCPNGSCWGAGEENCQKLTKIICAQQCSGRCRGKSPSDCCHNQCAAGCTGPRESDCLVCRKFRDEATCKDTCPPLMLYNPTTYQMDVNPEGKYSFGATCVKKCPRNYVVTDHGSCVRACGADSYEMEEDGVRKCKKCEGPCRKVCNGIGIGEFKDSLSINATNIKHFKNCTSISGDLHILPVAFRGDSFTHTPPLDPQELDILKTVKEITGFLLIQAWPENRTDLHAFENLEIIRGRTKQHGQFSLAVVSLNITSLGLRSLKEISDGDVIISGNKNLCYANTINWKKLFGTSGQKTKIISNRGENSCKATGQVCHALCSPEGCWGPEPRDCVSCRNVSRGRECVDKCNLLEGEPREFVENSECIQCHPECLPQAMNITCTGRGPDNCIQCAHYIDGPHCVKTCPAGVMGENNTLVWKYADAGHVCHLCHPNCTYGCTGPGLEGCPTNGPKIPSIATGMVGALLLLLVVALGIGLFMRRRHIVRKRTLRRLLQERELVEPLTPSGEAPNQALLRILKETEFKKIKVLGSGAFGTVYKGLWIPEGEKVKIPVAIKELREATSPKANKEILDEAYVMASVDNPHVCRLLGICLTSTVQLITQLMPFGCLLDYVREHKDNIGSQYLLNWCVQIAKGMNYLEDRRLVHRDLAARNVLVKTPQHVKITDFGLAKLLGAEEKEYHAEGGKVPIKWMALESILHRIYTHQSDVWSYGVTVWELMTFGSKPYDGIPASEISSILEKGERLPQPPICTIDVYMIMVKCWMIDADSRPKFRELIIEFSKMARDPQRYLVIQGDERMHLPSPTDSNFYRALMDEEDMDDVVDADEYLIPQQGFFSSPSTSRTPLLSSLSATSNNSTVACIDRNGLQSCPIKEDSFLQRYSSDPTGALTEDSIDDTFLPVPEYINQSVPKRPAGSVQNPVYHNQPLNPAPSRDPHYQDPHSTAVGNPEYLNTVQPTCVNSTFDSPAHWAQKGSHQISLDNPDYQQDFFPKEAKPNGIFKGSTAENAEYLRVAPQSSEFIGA
quantity_measured: pIC50
When answering, recall that pIC50 equals minus log10 of the concentration in mol/L, and write that number alone.

Query :: Write down measured pIC50 (Epidermal growth factor receptor (Homo sapiens, UniProt P00533)) for this molecule. COC[C@@H]1CCCN1CC#CC(=O)Nc1ccc2ncc(C#N)c(Nc3cccc(Br)c3)c2c1
Result :: 6.82
